System: MS2 coat protein
method_description: apparent KD of MS2 coat protein; higher = weaker reporter binding
settings: Eterna round: R107; input ligand: arginine 13.2 mM
I'd be grateful if you could share measured apparent KD of MS2 coat protein for these entries.

Take a look at these entries with their results.
query_sequence	experimental_target	apparent KD of MS2 coat protein
AAACAUGAGGAUCACCCAUGUUCUCGUGUCCGAGGACCGGUACGGCCGCCACUCGGUUCUCGCGAGGAUGGUCAAAGACUAUCCA [Omei Trp A SS B v6]	MS2 coat protein	22.9 nM
AUAAGUACGUCAGAUACCAGACAGCCAGACUUACAUGAGGAUCACCCAUGUGGAUGGACGGUCCCUUGGCAGCUGGCCGCAAAAG [Isedgeor]	MS2 coat protein	172 nM
GGAUAUGGUGAAAGAGAGAAGAGAGAUGAUACCAGUAAGAGAAGAUGCCCUUGGCAGCAUAGAGACAUGAGGAUCACCCAUGUAA [solution]	MS2 coat protein	12 nM
ACCAUGUAAUCAGAUACCAGACAUCUUUUAAAUCAUAUUACAUGAGGAUCACCCAUGUUGGUCCCUUGGCAGCUGAAAUAUUUCA [JR_Nu_SSTheophyB_Sub025]	MS2 coat protein	144 nM
ACGUAAAGCAGAAGGAGCGUCUUCAAUUUACAUGAGGAUCACCCAUGUUUUGUGAUCAUAUGACAGGUAGGUCGCUGAAGUACGA [JR_SSArginiB_Sub002]	MS2 coat protein	85.9 nM

Required: apparent KD of MS2 coat protein, one value per sequence below.
1. GCGUACGAUCGGGAUACCAGACAUUGCCGUUAGGGUGAACCUGAGGAACACCCAGGUUUUGUCCCUUGGCAGCCCGAUCGUACGC [ETB NP+V+V2 #8 Diff Apt, Same Structure]
2. UAUAUAUACUCGGCCGCCACUGAGAGAGUCAUGUAAACAUGAGGAUCACCCAUGUAAUAUAUAUACAGGACCGGGAGUAUAUGAA [4.B]
3. ACGUCUCGAAAACUCGUAGUAACUAUAGAUACCAGUAGCGAGAGUUACCCUUGGCAGCUACAUGAGGAUCACCCAUGUACGAGGA [XTheo A #28]
4. GGGCCCGGGCGCGAGCCCGGGCCCAUUGAUACCAGUGAGAGAGAGCGCCCUUGGCAGCGAAUCCUAACAUGAGGAUCACCCAUGU [5.N]
5. CCUAUGCAGUCGGCCGCCACUGAAAUCAAUAAGAUUACCUCAGAAACAUGAGGAUCACCCAUGUACAGGACCGGGACUGUAUAGG [Ex Tryptophan B 16]

["20.6 nM", "11.8 nM", "16.4 nM", "49.5 nM", "20.6 nM"]

Required: apparent KD of MS2 coat protein, one value per sequence below.
1. AAAAUAAAUAAAACACGUAACAUGAAGGAUACCAGACCGGAAACGGUCCCUUGGCAGCCUCUACAUGAGGAUCACCCAUGUCGUG [Mat - Same State Theophlline A - Mod of Eli - D18]
2. ACAUCCAGGUUAAUCGUGGGCAUGGUCGAUACCAGUAUUUUAAUCUACCCUUGGCAGCGACAUGAGGAUCACCCAUGUGCGAUGA [XTheo A #13]

110 nM
20.1 nM

* * *

Tested on: MS2 coat protein
method_description: apparent KD of MS2 coat protein; designed switch direction (-1 OFF switch, 1 ON switch): -1; higher = weaker reporter binding
settings: input ligand: FMN 200 uM
measured_quantity: apparent KD of MS2 coat protein
Dear colleague, please send the value followed by its unit.

query_sequence	experimental_target	apparent KD of MS2 coat protein
GUAUGUUCCUGAGGAUAUCGAGCCAUCGACCGCCGAGAAGGCAGAGACAUGAGGAUCACCCAUGUGAAGUAAUGGCGAUGAGAA [Eternabot solution 13] (Eterna round: R96, puzzle: Exclusion NG 1)	MS2 coat protein	15.4 nM
UCGUUUCGUGUAGGAUAUUGGCCUGCUCUGGGUCGAGAAGGACAUGAGGAUCACCCAUGUAUGUUAUUAUCACGCGUGGCGCAU [Design 82] (Eterna round: R96, puzzle: Exclusion NG 1)	MS2 coat protein	124 nM
UGAGAACUGCGAGGAUAUACAUGAGGAUCACCCAUGUAAUAGUGUGAGGCUUUGCCUCACACAAUGUAGAAGGCGCAGUUCUCU [Mat - Exclusion NG 2 - Mod of JL - D7] (Eterna round: R96, puzzle: Exclusion NG 2)	MS2 coat protein	18.4 nM

Required: apparent KD of MS2 coat protein, one value per sequence below.
1. GUCCUACAUGAGGAUCACCCAUGUGAGGAUAUGCGAUUAGCUGCUAGGUAGUUAGUAUGUAGAAGGCGCAUGAA [EX1 #77] (Eterna round: R97, puzzle: Exclusion 1)
2. GUUAUGUCAGGAUAUGCUAAUGAUGAGUGAUCAGACAUGAUGUAGAAGGGACAUGAGGAUCACCCAUGUACUAA [EX4 #9] (Eterna round: R97, puzzle: Exclusion 4)

15.9 nM
30.6 nM

* * *

I'd be grateful if you could share measured apparent KD of MS2 coat protein for these entries.
Test system: MS2 coat protein
method_description: apparent KD of MS2 coat protein; designed switch direction (-1 OFF switch, 1 ON switch): -1; higher = weaker reporter binding
settings: input ligand: microRNA oligo, concentration not stated
Dear colleague, please send the value followed by its unit.

query_sequence	apparent KD of MS2 coat protein
UUAAUUAAUUAAGGCUGAAGAUCACAUGAGGAUCACCCAUGUAAGGAUAUCAGCUCGAUUAGAGCUGAGAAGGUACAUGCAGCC [ExNG3/18-B1] (Eterna round: R96, puzzle: Exclusion NG 3)	377 nM

Required: apparent KD of MS2 coat protein, one value per sequence below.
1. AAAGCAAAGACAGGAUAUCGACCCAGUGAUUUUCGUGCCGGAAACAUGAGGAUCACCCAUGUGUACGAGAAGGGUCAAAACAAC [Uslebeteat] (Eterna round: R96, puzzle: Exclusion NG 2)
2. UGAGUGCUGCGAGGAUAUACAUGAGGAUCACCCAUGUUUUCCUGUGAGGCUUUGCCUCACAGGAUGUAGAAGGCGCAGUACUCU [JL ENG2 1.14] (Eterna round: R96, puzzle: Exclusion NG 2)
3. GACCUCACUGUAGGAUAUGACCGAUCCAGAGGAUCAGAAGGACAUGAGGAUCACCCAUGUGCGUGGAGGGAACGUAAGAAACAA [Eternabot solution 2] (Eterna round: R96, puzzle: Exclusion NG 1)
4. AGCUGUGGCCGAGGAUAUCUAACAGUCCCAACCGAAAUAUAAUCGGACAUGAGGAUCACCCAUGUAGAGAAGGCGGUCUCAGCA [Eli eng2 - 072] (Eterna round: R96, puzzle: Exclusion NG 2)

17.1 nM
7.33 nM
29.4 nM
157 nM

* * *

Tested on: MS2 coat protein
method_description: apparent KD of MS2 coat protein; designed switch direction (-1 OFF switch, 1 ON switch): -1; higher = weaker reporter binding
settings: input ligand: FMN 200 uM
Decide by apparent KD of MS2 coat protein: equal to or exceeding 40 nM means Satisfied, less means Not satisfied.

Solved cases below.
query_sequence	label_class
AGAUGCAGAGUAAGGAUAUGGUAGGCUUGCGCAAACCAGAAGGUACAUGAGGAUCACCCAUGUAAGCAUCAAGU [eternacac ex4r4 #5] (Eterna round: R97, puzzle: Brourd's mod of Exclusion 4)	Not satisfied
CGUCUGUUAGGAUAUGACCCGCGUACCGUGUCGAGCCGGGUUCAGAAGGAACAUGAGGAUCACCCAUGUGAGAA [Eternabot (L1) Solution 12] (Eterna round: R97, puzzle: Exclusion 4)	Satisfied
GUGUGCACGCUGCGAUCCUACAUGAGGAUCACCCAUGUGGUCUGGUGGCGUGGGUCACCGGACUUGGCUCGUCUUGG [salish99_S_TOV1_R5_077] (Eterna round: R97, puzzle: Sensor, turn-off variant 1)	Satisfied

Determine whether measured apparent KD of MS2 coat protein meets or exceeds 40 nM for ACCAUGUCAGGAUAUGCCCGUGUUCGAUCCGAGAAACACGAGCAGAAGGGACAUGAGGAUCACCCAUGUCCAAG [Eternabot (Original) Solution 1] (Eterna round: R97, puzzle: Exclusion 4)
Satisfied

Also check GGAUCGAGUGUGAGGAUAUGCUGGUCCUUGGAUCAGCAGAAGGCACAUGAGGAUCACCCAUGUGAAGACGAUCC [Eli bmx4 4.55] (Eterna round: R97, puzzle: Brourd's mod of Exclusion 4)
Satisfied

Also check CAGCAGAGAGGAUAUACUUGAGGAUCACCCAAGUGACACCGCCUGGUGCGAACUUGAAGUAGAAGGUUCGGCUA [Entema] (Eterna round: R97, puzzle: Exclusion 3)
Not satisfied

Also check GUCCCGGAAGGAUAUGCAGAGCACGAUCCCGUUAAAGGGCCACAUGAGGAUCACCCAUGUAGAAGGUCCAGGGC [EX2 B.21] (Eterna round: R97, puzzle: Exclusion 2)
Not satisfied

Also check UGAGUGCUGCGAGGAUAUACAUGAGGAUCACCCAUGUGGUCCUGUGAGGCUUUGCCUCACAGGAUGUAGAAGGCGCAGUACUCU [JL ENG2 1.18] (Eterna round: R96, puzzle: Exclusion NG 2)
Satisfied

Also check CUGAGUAGUCAGGAUAUGUGGUACAAAAGUACAGCAGAAGGGAUUACAUGAGGAUCACCCAUGUUUACUUCAUG [Omei Ex6 B16] (Eterna round: R97, puzzle: Exclusion 6)
Satisfied
